The measured values listed here are drawn from paper PMC5656587.

Measured response (photon counts), listed per entry.
ASSAY_TARGET: T1, biotin-MBP-tagged AtHAB1 (residues 172-511), Q9CAJ0
T1 chain: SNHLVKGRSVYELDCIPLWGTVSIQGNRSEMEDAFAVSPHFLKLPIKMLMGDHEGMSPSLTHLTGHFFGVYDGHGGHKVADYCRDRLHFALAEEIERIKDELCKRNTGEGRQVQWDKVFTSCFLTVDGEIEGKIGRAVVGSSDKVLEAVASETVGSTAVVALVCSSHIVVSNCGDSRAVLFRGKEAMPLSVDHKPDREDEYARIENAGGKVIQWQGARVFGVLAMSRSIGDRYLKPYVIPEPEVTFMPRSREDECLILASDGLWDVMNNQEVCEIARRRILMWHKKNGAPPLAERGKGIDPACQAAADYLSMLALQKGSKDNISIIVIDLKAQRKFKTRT
ASSAY_EXPLANATION: AlphaScreen
RUN_PARAMETERS: chain shown with the change; ABA (100 μM); parent: est. 8400; read off a plot
Kindly provide the number alone.

- BINDER: "H6-SUMO-tagged FePYR1 K72A (protein) MEQQPAAAEPEVPAGLGLTAAEYAELQPTVEAYHRYAVGPGQCSSLVAQRIEAPAAAVWAIVRRFDCPQVYAHFIRSCALRPDPDAGDELRPGRLREVSVISGLPASTSTERLDLLDDARRAFGFTITGGEHRLANYRSVTTVSELAPAAPAKICTVVLESYVVDVPEGNSEEDTRLFADTVVRLNLQKLKSLAEANATSAAAQATPPPQAE"
  response (photon counts): 1200

**Query** Entry under review: H6-SUMO-tagged FePYR1 H132A (protein) MEQQPAAAEPEVPAGLGLTAAEYAELQPTVEAYHRYAVGPGQCSSLVAQRIEAPAAAVWAIVRRFDCPQVYKHFIRSCALRPDPDAGDELRPGRLREVSVISGLPASTSTERLDLLDDARRAFGFTITGGEARLANYRSVTTVSELAPAAPAKICTVVLESYVVDVPEGNSEEDTRLFADTVVRLNLQKLKSLAEANATSAAAQATPPPQAE . Reported response (photon counts)?
**Result** 650

**Query** What do you get for H6-SUMO-tagged FePYR1 A106S (protein) MEQQPAAAEPEVPAGLGLTAAEYAELQPTVEAYHRYAVGPGQCSSLVAQRIEAPAAAVWAIVRRFDCPQVYKHFIRSCALRPDPDAGDELRPGRLREVSVISGLPSSTSTERLDLLDDARRAFGFTITGGEHRLANYRSVTTVSELAPAAPAKICTVVLESYVVDVPEGNSEEDTRLFADTVVRLNLQKLKSLAEANATSAAAQATPPPQAE ?
**Result** 2100

**Query** What do you get for H6-SUMO-tagged FePYR1 R133A (protein) MEQQPAAAEPEVPAGLGLTAAEYAELQPTVEAYHRYAVGPGQCSSLVAQRIEAPAAAVWAIVRRFDCPQVYKHFIRSCALRPDPDAGDELRPGRLREVSVISGLPASTSTERLDLLDDARRAFGFTITGGEHALANYRSVTTVSELAPAAPAKICTVVLESYVVDVPEGNSEEDTRLFADTVVRLNLQKLKSLAEANATSAAAQATPPPQAE ?
**Result** 3900
